TARGET_OR_TEST_SYSTEM: furin, P09958;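 note: purified furin at 1:10 enzyme:substrate in 50 mM HEPES pH 7.5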
Sequence (P09958 whole entry): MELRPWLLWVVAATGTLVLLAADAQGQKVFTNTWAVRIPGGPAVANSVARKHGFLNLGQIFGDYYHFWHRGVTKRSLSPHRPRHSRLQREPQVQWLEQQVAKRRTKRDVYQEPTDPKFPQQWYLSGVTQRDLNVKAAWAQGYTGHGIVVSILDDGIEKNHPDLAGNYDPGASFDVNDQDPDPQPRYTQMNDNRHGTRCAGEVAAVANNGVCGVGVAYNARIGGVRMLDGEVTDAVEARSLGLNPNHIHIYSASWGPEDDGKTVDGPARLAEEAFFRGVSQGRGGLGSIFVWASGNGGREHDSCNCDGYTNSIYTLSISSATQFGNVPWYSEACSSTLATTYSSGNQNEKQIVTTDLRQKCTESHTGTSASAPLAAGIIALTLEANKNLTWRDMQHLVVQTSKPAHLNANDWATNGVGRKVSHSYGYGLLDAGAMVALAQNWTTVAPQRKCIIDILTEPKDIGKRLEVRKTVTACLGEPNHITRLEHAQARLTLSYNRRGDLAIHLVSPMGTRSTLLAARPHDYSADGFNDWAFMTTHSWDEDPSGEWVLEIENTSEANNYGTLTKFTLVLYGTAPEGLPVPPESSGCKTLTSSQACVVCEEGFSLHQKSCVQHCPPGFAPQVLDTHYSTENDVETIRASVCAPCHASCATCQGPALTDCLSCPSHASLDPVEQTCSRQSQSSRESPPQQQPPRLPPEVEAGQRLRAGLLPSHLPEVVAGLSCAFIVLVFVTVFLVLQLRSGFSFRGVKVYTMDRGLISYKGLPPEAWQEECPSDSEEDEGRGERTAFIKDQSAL
MEASUREMENT_PROTOCOL: furin cleavage Z-score vs untreated control; higher = more cleavage, active = 3.5 or more, inactive = 1 or less, 8 variable residues between constant flanks
CONDITION_LABEL: 30 min
The list shows a part of the results. The hit rate among all sequences tested is not known here.
Your answer must be one of the following: Y (active), N (inactive)

Solved cases below.
chain="CARFRRDLVKAGNASASA [FS-1892]" class=Y
chain="CAGNRRRARAAGNASASA [FS-126]" class=Y
chain="CARFDRSVEKAGNASASA [FS-2013]" class=Y
chain="CATTSCSGSWAGNASASA [HC1877]" class=N
chain="CAMEQCSQHLAGNASASA [HC1722]" class=N
chain="CAKKMRVWRDAGNASASA [FS-674]" class=Y
chain="CAEVSTSTWVAGNASASA [HC2197]" class=N
chain="CAAAQTFLATAGNASASA [HC693]" class=N

// return assay outcome for CAYIERSPRSAGNASASA [FS-520]
Y

I would be grateful if you could indicate the recorded call for CAGPRLGVRAAGNASASA [HC181] .
N

What classification did CAPKPQKKNKAGNASASA [HC163] end up with in this test?
N

Could you check what this test reported for CAKTTRKKRNAGNASASA [FS-263] ?
Y

Recorded call for CAGGQIVGGVAGNASASA [HC174] ?
N

GET /call?item= CADSVDAKPDAGNASASA [CS1] returns the recorded outcome of this test.
N

What did this assay record as the result for CARSIKSVPEAGNASASA [FS-1927] ?
N
